- TEST_TARGET: UniProt P04150
- Sequence (P04150 whole entry): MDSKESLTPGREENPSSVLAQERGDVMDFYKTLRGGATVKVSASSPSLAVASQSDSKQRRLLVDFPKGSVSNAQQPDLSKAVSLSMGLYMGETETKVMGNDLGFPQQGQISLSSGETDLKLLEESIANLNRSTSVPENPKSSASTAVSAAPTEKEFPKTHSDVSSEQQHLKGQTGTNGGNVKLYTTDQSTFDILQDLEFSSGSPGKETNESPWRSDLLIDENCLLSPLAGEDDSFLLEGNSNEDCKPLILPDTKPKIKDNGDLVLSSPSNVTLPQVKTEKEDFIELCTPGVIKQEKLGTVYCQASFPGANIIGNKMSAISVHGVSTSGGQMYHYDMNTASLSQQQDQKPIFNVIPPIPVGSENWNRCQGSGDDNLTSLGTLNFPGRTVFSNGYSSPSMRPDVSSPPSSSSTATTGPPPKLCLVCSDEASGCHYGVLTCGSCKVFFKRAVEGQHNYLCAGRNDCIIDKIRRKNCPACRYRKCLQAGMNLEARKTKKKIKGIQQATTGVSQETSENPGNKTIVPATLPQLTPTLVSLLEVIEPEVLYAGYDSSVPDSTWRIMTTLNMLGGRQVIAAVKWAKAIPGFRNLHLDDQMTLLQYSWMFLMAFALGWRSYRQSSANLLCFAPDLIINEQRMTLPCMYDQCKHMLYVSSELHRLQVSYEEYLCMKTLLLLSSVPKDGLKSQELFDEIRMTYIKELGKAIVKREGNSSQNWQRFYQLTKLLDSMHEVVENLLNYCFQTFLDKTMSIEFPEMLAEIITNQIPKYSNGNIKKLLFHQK
- ASSAY_DETAILS: Transrepression Assay (GITAR), TNFα-β-lactamase reporter in U937 cells
- Format: cell-based
- Parameters: U937 cells contain an endogenous glucocorticoid receptor (GR); endogenous in cells; host or cells: U937 cells stably transfected with the TNF-alpha promoter/beta-lactamase reporter
- CONDITIONS: U937 cells; inflection point; read-out: Transrepression U937 Cells GITAR IP
MEASURED_METRIC: EC50 (nM)

Use these answered entries as a reference point.
Request body: readout EC50, system UniProt P04150, query C[C@]12Cc3cnn(-c4ccc(F)cc4)c3C=C1CC[C@@H]2CN(CC#N)S(=O)(=O)c1cc(F)cc(F)c1 . Return the value.
1050

Next record, please: C[C@]12Cc3cnn(-c4ccc(F)cc4)c3C=C1CC[C@@H]2CN(CCO)S(=O)(=O)c1ccc(Oc2ccccn2)cc1
1140

I. COC(=O)c1ccccc1S(=O)(=O)N(CCO)C[C@H]1CCC2=Cc3c(cnn3-c3ccc(F)cc3)C[C@@]21C
II. C[C@]12Cc3cnn(-c4ccc(F)cc4)c3C=C1CC[C@@H]2CN(CC#N)S(=O)(=O)c1cccc(C#N)c1
Identify the item whose EC50 is the smaller number: I or II Pick one and reply with its label.
I
(I: 363 nM, II: 540 nM)

A. Cc1ccc(S(=O)(=O)N(CCO)C[C@H]2CCC3=Cc4c(cnn4-c4ccc(F)cc4)C[C@@]32C)s1
B. C[C@]12Cc3cnn(-c4ccc(F)cc4)c3C=C1CC[C@@H]2CN(CCc1ccccc1F)S(=O)(=O)CCN1C(=O)c2ccccc2C1=O
// which entry reports the smaller EC50, A or B ? Answer with the label corresponding to your selection.
B
(B: 156 nM, A: 731 nM)

a. C[C@@H](CN(C[C@H]1CCC2=Cc3c(cnn3-c3ccc(F)cc3)C[C@@]21C)S(=O)(=O)CC(F)(F)F)OS(=O)(=O)CC(F)(F)F
b. COCCN(C[C@H]1CCC2=Cc3c(cnn3-c3ccc(F)cc3)C[C@@]21C)S(=O)(=O)CC(F)(F)F
Given the two records a and b , choose the one whose EC50 value is lower. Respond with the label that goes with your answer.
b
(b: 49 nM, a: 148 nM)
